# Tested on: dopamine (DA) in the striatum of a MPTP-treated mouse
# TEST METHOD NOTES: Combined administration with Levodopa group: dopamine in the striatum of MPTP-treated mouse (HPLC)
# Format: in vivo
# MEASUREMENT PARAMETERS: compound 1 mg/kg PO co-administered with Levodopa group (Levodopa 50 mg/kg + Benzerazide 25 mg/kg IP); 3 hr after Levodopa
# Experimental: MPTP (20 mg/kg, free base; Sigma, St. louis, Mo.) was administered to an 8 week old (20-25 g) male C57BL/6 test mouse intraperitoneally at the interval of 2 hours to construct a model. […]
ASSAY METRIC: Concentration of dopamine compared to a control group %, 3 hr (%)
Reply numerically in %, unit not repeated.

Record request: Concentration of dopamine compared to a control group %, 3 hr value, item CNC(=O)OCc1cc(-c2ccc(OCc3ccccc3)cc2)no1 89.2

Could you do the same for O=C(OCc1cc(-c2ccc(OCc3ccccc3)cc2)no1)n1ccnc1 , please? 53.9

Consider next the compound NC(=O)OCc1cc(-c2ccc(OCc3ccc(Cl)s3)cc2)no1 in the same way. 65.4

Entry O=C(OCc1cc(-c2ccc(OCc3ccccc3)cc2)no1)N1CCOCC1 please 60.4

Now give it for NC(=O)OCc1cc(-c2ccc(OCc3ccccc3)cc2)no1 too. 90.8
